- assayedTarget: PDE1B (Homo sapiens, UniProt Q01064)
- Construct: purchased Reaction Biology Corporation, Malvern, Pa
- Sequence (Q01064 whole entry): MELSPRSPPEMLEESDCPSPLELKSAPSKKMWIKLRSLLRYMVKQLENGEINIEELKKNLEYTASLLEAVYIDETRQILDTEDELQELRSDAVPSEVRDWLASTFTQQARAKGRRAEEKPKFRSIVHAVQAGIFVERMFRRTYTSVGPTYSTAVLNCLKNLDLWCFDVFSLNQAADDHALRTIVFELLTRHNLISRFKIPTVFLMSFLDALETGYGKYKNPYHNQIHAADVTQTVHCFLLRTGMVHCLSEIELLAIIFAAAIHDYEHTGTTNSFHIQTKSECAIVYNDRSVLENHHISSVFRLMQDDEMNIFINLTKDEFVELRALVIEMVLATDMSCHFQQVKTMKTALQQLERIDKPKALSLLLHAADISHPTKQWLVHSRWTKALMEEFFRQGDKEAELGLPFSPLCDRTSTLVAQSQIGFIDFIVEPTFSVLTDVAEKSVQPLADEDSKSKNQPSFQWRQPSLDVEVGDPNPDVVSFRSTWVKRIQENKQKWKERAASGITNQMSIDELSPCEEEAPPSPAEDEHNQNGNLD
- measurementProtocol: Phosphodiesterase enzyme screening assay, PDE1B
- Assay type: biochemical
- conditionSummary: ratio of IC50 values, PDE1B versus PDE9A2; value greater than 1 indicates greater selectivity for PDE9A2
Output true (1) for PDE1B selectivity (versus PDE9A2) not less than 100; output false (0) otherwise.

Assess whether reported PDE1B selectivity (versus PDE9A2) for CC1CN(Cc2nc3ccccn3n2)CC1c1nn2c(-c3ccc(F)cc3)ncc2c(=O)[nH]1 (single isomer, unassigned; (+)) sits at 100 or higher. false (0)

Quick check: does Cc1ccccc1-c1ncc2c(=O)[nH]c(C3CN(Cc4cccnc4)CC3C)nn12 (single isomer, unassigned; (+)) have PDE1B selectivity (versus PDE9A2) greater than or equal to 100? true (1)

Evaluate CC1CN(Cc2cccnc2)CC1c1nn2c(-c3cccc(F)c3)ncc2c(=O)[nH]1 (single isomer, unassigned; (+)) : PDE1B selectivity (versus PDE9A2) at minimum 100? false (0)

Please tell me: is the compound Cc1ccccc1-c1ncc2c(=O)[nH]c(C3CN(Cc4ccccn4)CC3C)nn12 (single isomer, unassigned; (+)) at or over 100 in terms of PDE1B selectivity (versus PDE9A2)? true (1)

Check the entry Cc1ccncc1-c1ncc2c(=O)[nH]c(C3CN(Cc4nc5ccccn5n4)CC3C)nn12 (single isomer, unassigned; (+)) : does PDE1B selectivity (versus PDE9A2) equal or exceed 100? true (1)

---

- assayedTarget: PDE1B (Homo sapiens)
- Construct: purchased Reaction Biology Corporation, Malvern, Pa
- measurementProtocol: Phosphodiesterase enzyme screening assay, PDE1B
- Type: biochemical
- conditionSummary: Table 2; ratio of IC50 values; value greater than 1 indicates greater selectivity for PDE9A2
Kindly return YES if reported PDE1B selectivity (versus PDE9A2) is no lower than 400; return NO if it is lower.

{"compound": "CC1CN(Cc2nccc(C(F)(F)F)n2)CC1c1nn2c(C3CCOCC3)ncc2c(=O)[nH]1 (single isomer, unassigned; (+))", "category": "YES"}

# check: PDE1B selectivity (versus PDE9A2) of CC1CN(CCc2cncnc2)CC1c1nn2c(C3CCOCC3)ncc2c(=O)[nH]1 (single isomer, unassigned; (+)) is greater than or equal to 400 NO

---

- assayedTarget: PDE1B (Homo sapiens)
- Construct: purchased Reaction Biology Corporation, Malvern, Pa
- measurementProtocol: Phosphodiesterase enzyme screening assay, PDE1B
- Format: biochemical
- conditionSummary: Table 1; ratio of IC50 values; value greater than 1 indicates greater selectivity for PDE9A2
- Text: Compounds of the invention were screened against PDE1A, PDE1B, PDE2A, PDE3A, PDE3B, PDE4A1A, PDE4B1, PDE4D3, PDE5A1, PDE6C, PDE7A, PDE8A1, PDE9A2, PDE10A2 AND PDE11A isoforms of the phosphodiesterase enzyme to determine activity and overall selectivity through comparative analysis. […] Where 8-methoxy-IBMX and Zaprinast were used as reference inhibitors. […]
assayEndpoint: PDE1B selectivity (versus PDE9A2)
The reply should be a number, written without any unit.

Reference set, count: 5
{"molecule": "Cc1cccc(CN2CC(C)C(c3nn4c(C5CCOCC5)ncc4c(=O)[nH]3)C2)c1 (single isomer, unassigned; (+))", "PDE1B selectivity (versus PDE9A2)": 402}
{"molecule": "CC1CN(Cc2ccccc2)CC1c1nn2c(C3CCOCC3)ncc2c(=O)[nH]1 (single isomer, unassigned; (-)) [(−)-2-((3,4-trans)-1-benzyl-4-methylpyrrolidin-3-yl)-7-(tetr]", "PDE1B selectivity (versus PDE9A2)": 550}
{"molecule": "CC1CN(Cc2cccc(N3CCCC3)c2)CC1c1nn2c(C3CCOCC3)ncc2c(=O)[nH]1 (single isomer, unassigned; (+))", "PDE1B selectivity (versus PDE9A2)": 1190}
{"molecule": "CC1CN(CCc2ccccc2)CC1c1nn2c(C3CCOCC3)ncc2c(=O)[nH]1 (single isomer, unassigned; (+))", "PDE1B selectivity (versus PDE9A2)": 23}
{"molecule": "CC1CN(Cc2ccccc2)CC1c1nn2c(C3CCOCC3)ncc2c(=O)[nH]1 (single isomer, unassigned; (+)) [(+)-2-((3,4-trans)-1-benzyl-4-methylpyrrolidin-3-yl)-7-(tetr]", "PDE1B selectivity (versus PDE9A2)": 5}

State its PDE1B selectivity (versus PDE9A2) for this molecule: CC1CN(C(=O)c2ccc3ccccc3n2)CC1c1nn2c(C3CCOCC3)ncc2c(=O)[nH]1 (single isomer, unassigned; (-)) 59

---

- assayedTarget: PDE1A (Homo sapiens)
- Construct: purchased Reaction Biology Corporation, Malvern, Pa
- Sequence (P54750 whole entry): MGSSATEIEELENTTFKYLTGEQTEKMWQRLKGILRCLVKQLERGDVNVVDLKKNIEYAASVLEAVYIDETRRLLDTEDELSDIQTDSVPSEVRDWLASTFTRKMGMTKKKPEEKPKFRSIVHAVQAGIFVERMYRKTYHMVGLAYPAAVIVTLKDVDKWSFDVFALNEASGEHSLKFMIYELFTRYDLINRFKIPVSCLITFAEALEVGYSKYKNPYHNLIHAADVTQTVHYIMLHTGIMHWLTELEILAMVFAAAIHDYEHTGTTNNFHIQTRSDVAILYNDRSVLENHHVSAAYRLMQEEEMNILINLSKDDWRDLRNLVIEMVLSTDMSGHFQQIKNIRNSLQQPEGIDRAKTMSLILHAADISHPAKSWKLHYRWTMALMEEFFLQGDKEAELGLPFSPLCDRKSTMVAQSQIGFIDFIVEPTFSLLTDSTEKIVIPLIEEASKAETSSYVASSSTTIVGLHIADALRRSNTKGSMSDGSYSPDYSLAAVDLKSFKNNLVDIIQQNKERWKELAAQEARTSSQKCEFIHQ
- measurementProtocol: Phosphodiesterase enzyme screening assay, PDE1A
- Type: biochemical
- conditionSummary: Table 1; ratio of IC50 values; value greater than 1 indicates greater selectivity for PDE9A2
The threshold is 400. Values of PDE1A selectivity (versus PDE9A2) beneath it are tagged true; values meeting or exceeding it are tagged false.

Could you please tell me whether PDE1A selectivity (versus PDE9A2) recorded for CC1CN(Cc2cccc(N(C)C)c2)CC1c1nn2c(C3CCOCC3)ncc2c(=O)[nH]1 (single isomer, unassigned; (+)) is less than 400? false

Quick check: does C[C@@H]1CN(Cc2ccc3cccnc3c2)C[C@H]1c1nn2c(C3CCOCC3)ncc2c(=O)[nH]1 (relative stereo) have PDE1A selectivity (versus PDE9A2) under 400? false

For CCc1ncc(CN2CC(C)C(c3nn4c(C5CCOCC5)ncc4c(=O)[nH]3)C2)cn1 (single isomer, unassigned; (+)) , is the recorded PDE1A selectivity (versus PDE9A2) below the cut-off of 400? false

Hi there! Is PDE1A selectivity (versus PDE9A2) for CC1CN(Cc2nc3ccccn3n2)CC1c1nn2c(C3CCOCC3)ncc2c(=O)[nH]1 (single isomer, unassigned; (+)) below 400, do you know? false

Input CC1CN(C(=O)c2ccccc2F)CC1c1nn2c(C3CCOCC3)ncc2c(=O)[nH]1 (single isomer, unassigned; (-)) ; condition: PDE1A selectivity (versus PDE9A2) strictly below 400. Does it hold? true

hey, is PDE1A selectivity (versus PDE9A2) for CC1CN(Cc2ccncn2)CC1c1nn2c(C3CCOCC3)ncc2c(=O)[nH]1 (single isomer, unassigned; (+)) lower than 400 or not? true

---

- assayedTarget: PDE9A2 (Homo sapiens, UniProt O76083)
- Construct: purchased Reaction Biology Corporation, Malvern, Pa
- Sequence (O76083 1-533 isoform O76083-2): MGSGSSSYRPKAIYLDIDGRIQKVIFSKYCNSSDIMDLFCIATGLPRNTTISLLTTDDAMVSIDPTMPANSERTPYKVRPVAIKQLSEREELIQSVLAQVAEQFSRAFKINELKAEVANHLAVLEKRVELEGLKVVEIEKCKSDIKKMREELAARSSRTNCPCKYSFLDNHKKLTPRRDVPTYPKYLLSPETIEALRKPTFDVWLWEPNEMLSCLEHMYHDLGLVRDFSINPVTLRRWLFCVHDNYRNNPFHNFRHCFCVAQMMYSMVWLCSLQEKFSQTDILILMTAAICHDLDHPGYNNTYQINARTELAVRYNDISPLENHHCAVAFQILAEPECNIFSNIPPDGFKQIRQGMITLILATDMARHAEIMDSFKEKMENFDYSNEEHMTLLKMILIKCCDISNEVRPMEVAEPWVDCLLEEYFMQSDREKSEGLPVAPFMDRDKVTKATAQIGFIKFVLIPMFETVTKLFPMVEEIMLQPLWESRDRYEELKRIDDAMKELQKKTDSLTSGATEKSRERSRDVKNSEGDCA
- measurementProtocol: Phosphodiesterase enzyme screening assay, PDE9A2
- Format: biochemical
- conditionSummary: Table 3; 4.0 μM cGMP substrate, 1 hour at R.T.; read-out: Band (PDE9A2 IC50)
Reported values of IC50 for individual entries

{"compound": "CC1CN(Cc2cccc(C(F)(F)F)n2)CC1c1nn2c(C3CCOCC3)ncc2c(=O)[nH]1 (single isomer, unassigned; (+))", "assayedTarget": "PDE9A2 (Homo sapiens, UniProt O76083)", "result": "< 1 µM"}
{"compound": "CC1CN(Cc2ncccc2C(F)(F)F)CC1c1nn2c(C3CCOCC3)ncc2c(=O)[nH]1 (single isomer, unassigned; (+))", "assayedTarget": "PDE9A2 (Homo sapiens, UniProt O76083)", "result": "< 1 µM"}

Now let's try a different one.
Provide one value: measured IC50 of COc1cc(CN2CC(C)C(c3nn4c(C5CCOCC5)ncc4c(=O)[nH]3)C2)ccn1 (single isomer, unassigned; (+)) < 1 µM

---

- assayedTarget: PDE1B (Homo sapiens, UniProt Q01064)
- Construct: purchased Reaction Biology Corporation, Malvern, Pa
- measurementProtocol: Phosphodiesterase enzyme screening assay, PDE1B
- Format: biochemical
- conditionSummary: ratio of IC50 values PDE1B vs PDE9A2; value greater than 1 indicates greater selectivity for PDE9A2
Measured PDE1B selectivity (versus PDE9A2) values are reported for all entries that follow.
Reply: number alone, nothing else.

{"compound": "Cc1cc(F)ccc1-c1ncc2c(=O)[nH]c(C3CN(Cc4cccnc4)CC3C)nn12 (single isomer, unassigned; (+))", "PDE1B selectivity (versus PDE9A2)": 492}
{"compound": "Cc1cc(F)ccc1-c1ncc2c(=O)[nH]c(C3CN(Cc4ccc(F)cc4)CC3C)nn12 (single isomer, unassigned; (+))", "PDE1B selectivity (versus PDE9A2)": 493}
{"compound": "CC1CN(Cc2cccnc2)CC1c1nn2c(C3CCC(F)(F)CC3)ncc2c(=O)[nH]1 (single isomer, unassigned; (+))", "PDE1B selectivity (versus PDE9A2)": 409}
{"compound": "Cc1cc(F)ccc1-c1ncc2c(=O)[nH]c(C3CN(Cc4nc5ccccc5[nH]4)CC3C)nn12 (single isomer, unassigned; (+))", "PDE1B selectivity (versus PDE9A2)": 2500}
{"compound": "Cc1ccc(F)cc1-c1ncc2c(=O)[nH]c(C3CN(Cc4cccnc4)CC3C)nn12 (single isomer, unassigned; (+))", "PDE1B selectivity (versus PDE9A2)": 505}
{"compound": "CC1CN(Cc2nc3ccccc3[nH]2)CC1c1nn2c(C3CCC(F)(F)CC3)ncc2c(=O)[nH]1 (single isomer, unassigned; (+))", "PDE1B selectivity (versus PDE9A2)": 250}

Read off the recorded PDE1B selectivity (versus PDE9A2) for CC1CN(Cc2ccccn2)CC1c1nn2c(C3CCC(F)(F)CC3)ncc2c(=O)[nH]1 (single isomer, unassigned; (+)) 362
